Biological target: T1, RRAS1, mGppNHp-bound (human, UniProt P10301 1-218)
T1 construct: human RRAS (RRAS1); Loaded with mGppNHp
T1 sequence (looked up): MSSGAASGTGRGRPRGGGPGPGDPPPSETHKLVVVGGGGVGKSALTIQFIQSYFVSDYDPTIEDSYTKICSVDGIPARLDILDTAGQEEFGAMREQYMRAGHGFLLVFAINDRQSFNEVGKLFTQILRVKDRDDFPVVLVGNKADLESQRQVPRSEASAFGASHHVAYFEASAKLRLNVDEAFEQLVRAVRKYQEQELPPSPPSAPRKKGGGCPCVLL
Experiment: fluorescence polarisation; increasing concentrations of the RA/RB domain as MBP fusion protein (0.002-300 µM; or MBP alone) titrated to mGppNHp-bound RAS protein (1 µM); 30 mM Tris-HCl pH 7.4, 100 mM NaCl, 5 mM MgCl2, 3 mM DTT; Kd from a quadratic ligand-binding equation
Conditions: both partners purified
measured property: Kd (µM)
Could you give me the number in µM? Just the number is fine.

For RASSF2-to-1 variant of the RASSF2 RA domain, MBP fusion protein (domain or fragment, human, UniProt P50749 176-264, looked up, RASSF2 RA domain (aa 176-264 of P50749, the limits of the wild-type construct) with four hotspot residues changed to those of RASSF1; source: gene synthesis (BioCat) in pMal-c5X-His vector; E. coli, purified) YNHKTSVFTPKDGSKHNVRINSTMTTPQVLKLLLNKFKIENSAEEFALYVVHTSGEKQKLKATDYPLIARILQGPCEQISKVFLMEKDQ the binder record lists Kd as 100
